TGT: erbB‐2 (Homo sapiens, UniProt P04626)
Sequence (P04626 23-1255, species assumed): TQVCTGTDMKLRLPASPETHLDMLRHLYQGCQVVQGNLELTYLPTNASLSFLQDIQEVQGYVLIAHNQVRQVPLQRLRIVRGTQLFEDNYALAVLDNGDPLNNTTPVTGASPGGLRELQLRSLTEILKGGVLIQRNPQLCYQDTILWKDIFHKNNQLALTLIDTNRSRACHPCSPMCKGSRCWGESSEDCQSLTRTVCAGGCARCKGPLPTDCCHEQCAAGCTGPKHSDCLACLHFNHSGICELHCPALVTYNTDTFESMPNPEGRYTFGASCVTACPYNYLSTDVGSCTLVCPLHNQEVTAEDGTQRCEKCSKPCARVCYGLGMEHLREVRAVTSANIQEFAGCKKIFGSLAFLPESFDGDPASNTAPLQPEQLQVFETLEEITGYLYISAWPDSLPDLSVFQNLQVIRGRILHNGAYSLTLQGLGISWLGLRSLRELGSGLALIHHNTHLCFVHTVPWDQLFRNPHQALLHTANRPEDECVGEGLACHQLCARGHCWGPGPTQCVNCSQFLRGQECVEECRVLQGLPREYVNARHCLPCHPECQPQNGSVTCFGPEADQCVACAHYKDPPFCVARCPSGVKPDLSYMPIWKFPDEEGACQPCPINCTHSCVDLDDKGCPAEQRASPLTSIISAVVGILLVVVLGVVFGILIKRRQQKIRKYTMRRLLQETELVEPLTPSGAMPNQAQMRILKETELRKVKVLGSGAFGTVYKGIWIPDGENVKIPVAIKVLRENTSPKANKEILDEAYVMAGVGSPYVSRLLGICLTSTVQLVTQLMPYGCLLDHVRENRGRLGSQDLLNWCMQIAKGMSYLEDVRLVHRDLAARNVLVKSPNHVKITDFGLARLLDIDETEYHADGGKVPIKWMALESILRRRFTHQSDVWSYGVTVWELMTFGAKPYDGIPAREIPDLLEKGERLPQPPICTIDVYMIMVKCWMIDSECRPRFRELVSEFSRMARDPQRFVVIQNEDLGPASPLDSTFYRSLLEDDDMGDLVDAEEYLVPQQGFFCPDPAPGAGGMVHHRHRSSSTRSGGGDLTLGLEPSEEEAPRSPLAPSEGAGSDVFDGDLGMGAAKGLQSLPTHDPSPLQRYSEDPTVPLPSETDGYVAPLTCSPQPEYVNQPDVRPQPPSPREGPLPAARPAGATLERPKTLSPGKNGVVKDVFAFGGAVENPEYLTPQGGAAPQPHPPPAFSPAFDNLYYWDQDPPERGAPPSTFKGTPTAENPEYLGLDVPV
MEASURED_PARAMETER: pIC50
pIC50 is a log-scale quantity: -log10 of the concentration expressed in molar.

Return reported pIC50; argument: O=C1OC(c2ccc(O)c(O)c2)=C/C1=C\c1ccc(O)c(O)c1 [BE‐23372M] 6.38
